Ref: the RNAGym collection of RNA variant scans (doi:10.7554/elife.80360)

B1: HDV Ribozyme (parent)
chain: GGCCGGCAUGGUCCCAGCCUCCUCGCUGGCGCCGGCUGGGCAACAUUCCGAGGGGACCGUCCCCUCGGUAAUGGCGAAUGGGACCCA

- Variants of: B1
- RUN DESCRIPTION: self-cleavage, relative activity (ratio to wild type); higher = more cleavage; co-transcriptional
Tick Yes if self-cleavage is 0.1 or greater. Tick No if self-cleavage is less than 0.1.

Worked examples, 3 variants total:
[
  {
    "ALTERATION": "U20G G52C",
    "ASSIGNED LABEL": "Yes"
  },
  {
    "ALTERATION": "C3G G28U",
    "ASSIGNED LABEL": "No"
  },
  {
    "ALTERATION": "G28A G52A",
    "ASSIGNED LABEL": "No"
  }
]

Enquiry: Identify whether the reported self-cleavage of the following variant is 0.1 or greater: A70U G81C
Return: Yes

Enquiry: Identify whether the reported self-cleavage of the following variant is 0.1 or greater: G29U C84U
Return: No

Enquiry: Identify whether the reported self-cleavage of the following variant is 0.1 or greater: G11A G34A
Return: Yes

Enquiry: Identify whether the reported self-cleavage of the following variant is 0.1 or greater: G6C C7G
Return: Yes

Enquiry: Identify whether the reported self-cleavage of the following variant is 0.1 or greater: C41U A42U
Return: Yes

Enquiry: Identify whether the reported self-cleavage of the following variant is 0.1 or greater: U23G G31U
Return: No

Enquiry: Identify whether the reported self-cleavage of the following variant is 0.1 or greater: A8C C30G
Return: No

Enquiry: Identify whether the reported self-cleavage of the following variant is 0.1 or greater: C33U C64A
Return: Yes

Enquiry: Identify whether the reported self-cleavage of the following variant is 0.1 or greater: A77C A83G
Return: Yes

Enquiry: Identify whether the reported self-cleavage of the following variant is 0.1 or greater: G5U A56G
Return: Yes

Enquiry: Identify whether the reported self-cleavage of the following variant is 0.1 or greater: A51G A83U
Return: Yes

Enquiry: Identify whether the reported self-cleavage of the following variant is 0.1 or greater: C4A C44A
Return: Yes

Enquiry: Identify whether the reported self-cleavage of the following variant is 0.1 or greater: A8U G74C
Return: Yes

Enquiry: Identify whether the reported self-cleavage of the following variant is 0.1 or greater: U23A C66A
Return: Yes

Enquiry: Identify whether the reported self-cleavage of the following variant is 0.1 or greater: C32U C61U
Return: Yes

Enquiry: Identify whether the reported self-cleavage of the following variant is 0.1 or greater: G1A G5C
Return: No

Enquiry: Identify whether the reported self-cleavage of the following variant is 0.1 or greater: C4A U20C
Return: Yes

Enquiry: Identify whether the reported self-cleavage of the following variant is 0.1 or greater: C3U C13A
Return: Yes
